Tested on: SNB-19 CNS
Assay: NCI-60 one-dose screen, 48 h
Settings: 10 µM unless noted
The panel holds about 83,000 compounds, 20% with a hit somewhere; the sample as a whole holds those more often. Active and inactive are the calls of the source. How the source made its calls: active means growth percent below 10; inactive means the rest.
Outcome codes: active, inactive

{"columns": ["Compound", "Answer Label"],
 "data": [
  ["Cc1ccc(NC2CC(=O)N(c3c(C)cc(C)cc3C)C2=O)c(C)c1 (stereo unspecified)", "inactive"],
  ["COc1cc(/C=C/c2cc(/C=C/c3ccc(O)c(OC)c3)n(-c3ccccc3)c(=O)n2)ccc1O", "inactive"],
  ["O=c1[nH]ncc(Br)c1Br", "inactive"],
  ["Cc1cc(Cl)nc(N(CCNc2ccnc3cc(Cl)ccc23)Cc2ccco2)n1", "inactive"],
  ["c1ccc(-c2nc(Nc3ccc(-c4nc5ccccc5[nH]4)cc3)nc(N3CCOCC3)n2)cc1", "active"],
  ["OCCNc1nc(Nc2ccc(Cl)c(Cl)c2)nc2ccccc12", "inactive"],
  ["C=C(C)[C@@H]1CC[C@]2(/C=N/Nc3ccncc3)CC[C@]3(C)[C@H](CC[C@@H]4[C@@]5(C)CCCNC(C)(C)[C@@H]5CC[C@]43C)[C@@H]12", "inactive"],
  ["CC1(C)NCCC[C@]2(C)[C@H]3CC[C@@H]4[C@H]5[C@H](C(=O)/C=C/c6ccccn6)CC[C@]5(CO)CC[C@@]4(C)[C@]3(C)CC[C@@H]12", "inactive"],
  ["C=C(C)[C@@H]1CC[C@]2(C(=O)N3CCN(CC)CC3)CC[C@]3(C)[C@H](CC[C@@H]4[C@@](C)(CCC(=O)N5CCN(CC)CC5)[C@H](C(=C)C)CC[C@]43C)[C@@H]12", "inactive"],
  ["O=C1CN(c2ccccc2)C(=O)C1C(=O)Nc1ccc(Cl)c(Cl)c1 (stereo unspecified)", "active"],
  ["CCNCCCn1c2c(c3ccc([N+](=O)[O-])cc3c1=O)C(=O)c1cc(OC)cnc1-2", "inactive"],
  ["COc1cnc2c(c1)C(=O)c1c-2n(CCCNC2=NCCS2)c(=O)c2cc([N+](=O)[O-])ccc12", "inactive"],
  ["N#Cc1cnc2cc(OC[C@@H](O)CO)c(NC(=O)C3CCCC3)cc2c1Nc1ccc(OCc2cccc(F)c2)c(Cl)c1", "inactive"],
  ["COc1ccc2c(c1)C/C(=C\\c1cc(-c3ccc4c(c3)OCO4)n[nH]1)C2=O", "inactive"],
  ["C=CC(=O)N[C@H](Cc1ccc(-c2cc(Cl)cc(Cl)c2)cc1)[C@H](O)[C@@H](O)C(=O)O", "inactive"],
  ["CCCCCCCCNc1cccc2c1C(=O)c1ccccc1C2=O", "inactive"],
  ["C/C(=N\\Nc1ccc2ccccc2n1)c1ccccn1", "inactive"],
  ["O=C1C=C(C(O)c2ccc(O)cc2)C(=O)c2ccccc21 (stereo unspecified)", "inactive"],
  ["Cn1cc(-c2csc(-c3cn(CCCN4CCCCC4)c4ccccc34)n2)c2cccnc21", "active"],
  ["Fc1ccc2[nH]cc(-c3nc(-c4c[nH]c5ncccc45)cs3)c2c1", "inactive"],
  ["Cn1cc(-c2csc(-c3cn(C(=O)OC(C)(C)C)c4ccccc34)n2)c2cccnc21", "inactive"],
  ["CCCC(=O)N1CCCCC1CC (stereo unspecified)", "inactive"],
  ["Nc1c2c(nc3ccc(Br)cc13)CC(c1ccccc1)CC2=O (stereo unspecified)", "inactive"],
  ["NC1=NN=C2N(N)C(=O)c3cnn(-c4ccccc4)c3N2c2nc(-c3ccccc3)cc(-c3ccccc3)c21", "inactive"],
  ["CC(c1ccccc1)N1C(=O)C(C2SC(=S)N(C(C)c3ccccc3)C2=O)SC1=S (stereo unspecified)", "inactive"],
  ["CN(C)c1cccc2[nH]c(-c3[nH]ncc3Nc3ccnc(N)n3)nc12", "active"],
  ["CC1(C)C(=O)/C(=C\\c2cccnc2)C[C@]2(C)[C@H]3CC[C@@H]4[C@@H](C(=O)/C=C/c5ccncc5)CC[C@@]4(C)[C@]3(C)CC[C@@H]12", "inactive"],
  ["COc1ccc(C(=O)c2cc(OC)c(OC)c(OC)c2)cc1/C=C/C(=O)c1cc(OC)c(OC)c(OC)c1", "inactive"],
  ["O=c1[nH]c(=S)[nH]c2nc[nH]c12", "inactive"],
  ["NC1=NN(c2ccccc2)C(=O)/C1=C/c1ccc(Cl)cc1", "inactive"],
  ["CN1CCN(CC#CCn2c3c(c4ccccc42)C[C@]2(C)[C@H]4CC[C@@H]5[C@H]6[C@H]7OC(=O)[C@@]6(CCC7(C)C)CC[C@@]5(C)[C@]4(C)CC[C@H]2C3(C)C)CC1", "inactive"]
]}

* * *

System: HS 578T breast
Experiment: NCI-60 one-dose screen, 48 h
Conditions: 10 µM unless noted
Compounds without any hit were thinned out: in the full panel of roughly 83,000, 20% have a hit. The source made the active and inactive calls. The calls were made as follows: active = growth percent below 10; inactive = the rest.
Possible outcomes: true (1) for active, false (0) for inactive

{"columns": ["Smiles Code", "Answer Label"],
 "data": [
  ["O=C1/C(=C\\c2ccco2)SC(=S)N1CCc1ccc(O)cc1", "false (0)"],
  ["Cc1ccc(-c2nc([P+](c3ccccc3)(c3ccccc3)c3ccccc3)c(N3CCOCC3)o2)cc1", "false (0)"],
  ["O=S(=O)(NCCNc1cc(-c2cn(-c3ccccc3)nc2-c2cccc(O)c2)ccn1)c1ccc(C(F)(F)F)cc1", "false (0)"],
  ["CC(C)(C)c1ccc(OCCCCCCCN2CCNCC2)cc1", "false (0)"],
  ["c1cc(N2CCCC2)c2nc(-c3[nH]ncc3Nc3ncnc4[nH]ccc34)[nH]c2c1", "true (1)"]
]}

* * *

System: DU-145 prostate
Assay: NCI-60 one-dose screen, 48 h (100 = growth as untreated, 0 = no growth, -100 = all killed)
Details: 10 µM unless noted
Compounds without any hit were thinned out: in the full panel of roughly 83,000, 20% have a hit. Calls of active or inactive are those of the source. How the source made its calls: active means growth percent below 10; inactive means the rest.
This listing pairs compounds with measured growth.

{"columns": ["Smiles Code", "growth"],
 "data": [
  ["COc1ccc2nc(-c3c(-c4ccccc4)nc4ncccn34)[nH]c2c1", "115% (inactive)"],
  ["Cc1cc(N(CCCNc2ccnc3cc(Cl)ccc23)Cc2ccco2)nc(N2CCN(C)CC2)n1", "55.6% (inactive)"],
  ["CC1(C)C(=O)CC[C@]2(C)[C@H]3C(=O)C=C4[C@@H]5C[C@@](C)(C(=O)NCCNCCN)CC[C@]5(C)CC[C@@]4(C)[C@]3(C)CC[C@@H]12", "102% (inactive)"],
  ["NC1=NN=C2N(N)C(=O)c3cnn(-c4ccccc4)c3N2c2nc(-c3ccccc3)cc(-c3ccccc3)c21", "108% (inactive)"],
  ["N=C(N)N=Nc1ccc(O)cc1", "80.4% [100 µM] (inactive)"],
  ["C=C(C)[C@@H]1CC[C@]2(C(=O)N3CCN(C)CC3)CC[C@]3(C)[C@H](CC[C@@H]4[C@@]5(C)C/C(=C/c6ccc(C(F)(F)F)cc6)C(=O)C(C)(C)[C@@H]5CC[C@]43C)[C@@H]12", "104% (inactive)"],
  ["O=S(=O)(NCCNc1cc(-c2cn(-c3ccccc3)nc2-c2cccc(O)c2)ccn1)c1cccc(F)c1", "63.5% (inactive)"],
  ["Cn1cc(-c2csc(-c3cn(CCN)c4ccc(F)cc34)n2)c2cccnc21", "68.5% (inactive)"],
  ["Fc1ccc2[nH]cc(-c3nc(-c4c[nH]c5ncccc45)cs3)c2c1", "30.5% (inactive)"],
  ["O=C(CCCCCn1c2ccccc2c2c3c(c4c5ccccc5[nH]c4c21)C(=O)N(O)C3=O)N1CCOCC1", "69.6% (inactive)"],
  ["Nc1c(C(=O)Nc2c(Cl)cccc2Cl)sc2nc3c(cc12)C(=O)CCC3", "41.1% (inactive)"]
]}

* * *

System: OVCAR-5 ovarian
Test: NCI-60 one-dose screen, 48 h
Conditions: 10 µM unless noted
Compounds without any hit were thinned out: in the full panel of roughly 83,000, 20% have a hit. Calls of active or inactive are those of the source. Rule for the calls: active = growth percent below 10; inactive = the rest.
Classes used: 1 for active, 0 for inactive

{"columns": ["Molecule", "Answer Label"],
 "data": [
  ["CC(C)(C)c1cc(-n2c(-c3ccc(Cl)cc3)nc3cc(C(=O)Nc4ccc(Cl)cc4)ccc32)n[nH]1", 0],
  ["Cn1c2c(c3ccc(Cl)cc31)-n1cccc1C2=O", 0],
  ["COC(=O)[C@]12CC[C@@H](C)[C@H](C)[C@@H]1C1=CC[C@@H]3[C@@]4(C)C[C@@H](O)[C@H](O)[C@@](C)(CO)C4=CC[C@@]3(C)[C@]1(C)CC2", 1],
  ["COC(=O)[C@]12CC[C@@H](C(C)=O)[C@@H]1[C@H]1CC[C@@H]3[C@@]4(C)C/C(=C/c5cccnc5)C(=O)C(C)(C)[C@@H]4CC[C@@]3(C)[C@]1(C)CC2", 0],
  ["COc1ccc2c(c1)c(-c1nc(-c3cn(C)c4ncccc34)cs1)cn2CCN", 0],
  ["N#CC1=C(N)Oc2c(sc3c(F)cccc23)C1c1ccc(Cl)cc1 (centres undefined)", 0],
  ["COc1ccc(-c2cc(/C=C/C(=O)c3ccc(N)cc3)[nH]n2)cc1", 0],
  ["COc1ccc(NC(=O)c2ccoc2COc2ccccc2)cc1", 0],
  ["CCCCC(=O)OC1CCCCC1C (centres undefined)", 0],
  ["CN(C)c1ccc(-c2ccc(-c3ccc(C(=N)N)c(F)c3)s2)cc1", 1],
  ["O=C(/C=C/c1ccc2ccccc2c1)Nc1ncc(Cc2ccccc2)s1", 0],
  ["CCC(=O)c1c(C)[nH]c(C)c1C", 0],
  ["COc1ccc(-n2c(/C=C/c3ccc(O)c(OC)c3)cc(/C=C/c3ccc(O)c(OC)c3)nc2=O)cc1", 0],
  ["COc1ccc(/C=C/C(=O)c2ccc([N+](=O)[O-])cc2)cc1", 0],
  ["COc1c(N)c2c(c([N+](=O)[O-])c1OC)C(=O)OC2", 0],
  ["CN1CCN(c2ccc3nc(-c4[nH]ncc4Nc4ncnc5c4OCCCN5)[nH]c3c2)CC1", 1],
  ["O=C1c2cccc3cccc(c23)C(=O)N1CC#Cc1ccc2c3c(cccc13)C(=O)N(CCO)C2=O", 0],
  ["C=C1C(=O)O[C@H]2[C@H]1CC/C(Cn1cc(-c3ccc(F)cc3)nn1)=C\\CC[C@@]1(C)O[C@@H]21", 1],
  ["COc1cnc2c(c1)C(=O)c1c-2n(CCCNC2=NCCS2)c(=O)c2cc([N+](=O)[O-])ccc12", 0],
  ["Cc1ccc(C)c2c1CCC2C(C)C (centres undefined)", 0],
  ["O=C(O)/C(=C/c1ccc(O)cc1)c1ccccc1", 0],
  ["Cn1cc(-c2csc(-c3cn(C(=O)OC(C)(C)C)c4ccc(Br)cc34)n2)c2cccnc21", 0],
  ["C=C(C)[C@@H]1CC[C@]2(C(=O)N3CCN(C)CC3)CC[C@]3(C)[C@H](CC[C@@H]4[C@@]5(C)C/C(=C/c6ccc(C(F)(F)F)cc6)C(=O)C(C)(C)[C@@H]5CC[C@]43C)[C@@H]12", 0],
  ["COC(=O)C(Cc1ccccc1)n1cc(COc2nc(Cl)nc(Nc3ccc(Cl)cc3)n2)nn1 (centres undefined)", 0],
  ["COc1cc2nc(Cl)nc(Nc3cccc(C(=O)/C=C/c4ccc(Cl)cc4)c3)c2cc1OC", 0],
  ["Cc1cccc2c1NC(=O)[C@@]21[C@H](C(=O)c2ccccc2)[C@]2(C(=O)Nc3ccccc32)[C@H]2CCCN21", 0],
  ["CCCCC[C@H]1C/C=C2/C(=O)C(Cl)=C[C@@H]2C/C=C\\CCCC(=O)O[C@@H](CCCCC)C/C=C2/C(=O)C(Cl)=C[C@@H]2C/C=C\\CCCC(=O)O1", 1],
  ["CCNCCCn1c2c(c3ccc([N+](=O)[O-])cc3c1=O)C(=O)c1cc(OC)cnc1-2", 0],
  ["COC(=O)CCCCCn1c2ccccc2c2c3c(c4c5ccccc5[nH]c4c21)C(=O)N(O)C3=O", 0],
  ["Cc1cc(Cl)nc(N(CCNc2ccnc3cc(Cl)ccc23)Cc2ccco2)n1", 0],
  ["Cc1csc(Nc2nc(-c3ccc(Cl)cc3)nc(C(Cl)(Cl)Cl)n2)n1", 0],
  ["CC(=O)O[C@H]1CC[C@@]2(C)[C@@H](CC[C@@H]3[C@@H]2CC(=O)[C@@]2(C)[C@H]3C[C@@H](C3CCCC3=O)[C@@H]2C(C)=O)C1 (some centres undefined)", 0],
  ["C/C(=N\\NC(=O)C(C)SC(C)C(=O)N/N=C(\\C)c1cccnc1)c1cccnc1 (centres undefined)", 0],
  ["c1ccc(CN2C(c3ccccc3)=Nc3ccccc3C2c2c[nH]c3ccccc23)cc1 (centres undefined)", 0]
]}

Provenance of the data: PubChem BioAssay (NCI)
